Sourced from the supplement of paper PMC6555819

- Tested on: RARg homodimer (NR concentration 270 nM)
- PROTOCOL_DETAILS: PBM binding z-score (relative to random genomic background probes); higher = stronger binding; sequences stand for … in GC…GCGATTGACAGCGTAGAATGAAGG
Everything with PBM binding z-score lower than 3 is false (0); everything else, including exactly 3, is true (1).

CAAACTAGGACACGAAAGGTCAAAGTCGAATGAC : true (1)
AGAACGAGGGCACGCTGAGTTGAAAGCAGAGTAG : false (0)
CGAATTAGGTCAGAACAGGACAGTGAAGGATGAT : true (1)
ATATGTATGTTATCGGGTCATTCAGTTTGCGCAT : false (0)
AGAACGAGGGCACGCTGAGTTGATATCAGAGTAG : false (0)

Next sequence, please.
Query: Given the entry TCTAGCAGGCCAGCGGGTCACTCAAGAGGTACGG , answer whether its PBM binding z-score meets or surpasses 3.
Result: false (0)
